System: T-1191-MUC-1 cells
test.name: IFN-γ production (ELISA) by T-1191-MUC-1 cells stimulated with peptide-pulsed autologous B cells
Assay type: cell-based, human
conditions.used: T-1191-MUC-1 at IVS-3; autologous EBV-B cells pulsed 25 μg/ml; effector-to-APC 1:3; 24 h
Label t when Production of IFN-γ, with peptide >= 300 pg/mL; otherwise f.

Query block: hey, is Production of IFN-γ, with peptide for this one >= 300 pg/mL? ATWGQDVTSV [Peptide P-92]
Result block: t

====

target.desc: HLA-A2 molecule (Homo sapiens, UniProt P04439, I166T/I218V/L300P/L318F/N151K/N90K/P208A/P217A/Q86G/Q94H/R138H/R169H/T345S)
test.name: T2 cell binding assay: peptide binding to HLA-A2 by flow cytometry
conditions.used: Table 1; T2 cells, peptide 50 μg/ml
Label t when T2 binding >= 400 relative fluorescence; otherwise f.

Solved entries (count: 4):
{"residue.string": "REGTINVHDV [Peptide P-1108]", "discrete.label": "t"}
{"residue.string": "ATWGQDVTSV [Peptide P-92]", "discrete.label": "t"}
{"residue.string": "LAFREGTINV [Peptide P-1105]", "discrete.label": "t"}
{"residue.string": "LIALAVCQC (YLIALAVCQC) [Peptide P-1177]", "discrete.label": "f"}

Query block: hey, is T2 binding for this one >= 400 relative fluorescence? GTQSPFFLLL [Peptide P-4]
Result block: t

Query block: hey, is T2 binding for this one >= 400 relative fluorescence? LQRDISEMFL [Peptide P-1069]
Result block: t

Query block: hey, is T2 binding for this one >= 400 relative fluorescence? TISDVSVSDV [Peptide P-1135]
Result block: t

Query block: hey, is T2 binding for this one >= 400 relative fluorescence? VLVALAIVYL [Peptide P-1169]
Result block: f

Query block: hey, is T2 binding for this one >= 400 relative fluorescence? ALAIVYLIAL [Peptide P-1172]
Result block: f

Query block: hey, is T2 binding for this one >= 400 relative fluorescence? YRPGENLNL [NCA, NCA peptide used as a negative control, reference compound]
Result block: f

Query block: hey, is T2 binding for this one >= 400 relative fluorescence? WGQDVTSVPV [Peptide P-94]
Result block: t

Query block: hey, is T2 binding for this one >= 400 relative fluorescence? ALLVLVCVLV [Peptide P-1162]
Result block: t

Query block: hey, is T2 binding for this one >= 400 relative fluorescence? TLASHSTKTD [Peptide P-1104]
Result block: t
